# assay notes: ATG_NRF2_ARE_CIS: Attagene CIS-FACTORIAL HepG2 Assay for human Nuclear Factor Erythroid 2 Related Factor 2 (NFR2) response to Antioxidant Response Elements (ARE) (AID 2282992);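 on AC50: reporter mRNA level measured by RT-PCR and capillary electrophoresis fluorescence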
# condition details: HepG2 Attagene ARE/NRF2 reporter, transcription factor activity; actives raise or lower the signal
# Experimental: ATG_CIS is a cell-based, multiplexed-readout assay that uses HepG2, a human liver cell line, with measurements taken at 24 hours after chemical dosing in a 24-well plate.ATG_NRF2_ARE_CIS is one of 52 assay component(s) measured or calculated from the ATG_CIS assay. […] This assay endpoint, ATG_NRF2_ARE_CIS, was analyzed with bidirectional fitting relative to DMSO as the negative control and baseline of activity. […]
Active and inactive are the calls of the source. How the source made its calls: active means hit-call score of the fitted dose curve at least 0.9, where 1 is the maximum; inactive means score below 0.9.
parameter measured: AC50

> print(dat)
                                    compound            result
 1                               CCCCNC(N)=O          inactive
 2                       [O-][n+]1ccc(Cl)cc1          inactive
 3           CCCCCCOC(=O)CCCCCCCC(=O)OCCCCCC          inactive
 4              O=[N+]([O-])c1ccccc1C(F)(F)F          inactive
 5                                CC/C=C\CCO          inactive
 6                          OCCOCCOCCOCCOCCO          inactive
 7  CCC(C)(CCC(C)C)C(=O)O (stereo unspecified)          inactive
 8  CC1=C(CC(=O)O)c2cc(F)ccc2/C1=C\c1ccc(S(C)=O)cc1 (stereo unspecified)    23 µM (active)
 9       Nc1ccc(S(=O)(=O)Nc2cnc3ccccc3n2)cc1          inactive
10  CC1=CCCC(C)(C)C12CCC(C)O2 (stereo unspecified)  17.5 µM (active)
11                    O=C(c1ccccc1)c1ccccc1O          inactive
12                 CCO[Si](OCC)(OCC)c1ccccc1          inactive
13                O=C(C(=O)c1ccccc1)c1ccccc1          inactive
14                             CC/C=C\CCCCCO          inactive
15                                 Cc1cccnc1          inactive
16                 Brc1ccc(Oc2ccc(Br)cc2)cc1  66.4 µM (active)
17     CN(C)Cc1cc(C(C)(C)C)c(O)c(C(C)(C)C)c1  37.8 µM (active)
18                     C=CCOCC(CC)(CO)COCC=C          inactive
19             CCCCCCCCCCCCCCCCCC[N+](C)(C)C  4.81 µM (active)
20                   O=C(O)c1cc(Cl)cc(Cl)c1O          inactive
21                          CC(=O)CCc1ccccc1          inactive
22              O=[N+]([O-])c1ccc2nc[nH]c2c1          inactive
23                                NCc1ccccc1          inactive
24    CCCCCCC1CCC(=O)O1 (stereo unspecified)          inactive
25                          CN(C)N=Nc1ccccc1   177 µM (active)
26    CNC[C@H](O)[C@@H](O)[C@H](O)[C@H](O)CO          inactive
27                    CC1=C(CC=O)C(C)(C)CCC1  30.2 µM (active)
28  Cc1cc2nc3c(=O)[nH]c(=O)nc-3n(C[C@H](O)[C@H](O)[C@H](O)CO)c2cc1C          inactive
29                       COC(=O)CCSCCC(=O)OC          inactive
30                            C=CN1CCCCCC1=O          inactive
31                        C=C(C)C(=O)OCCCCCC          inactive
